- Test system: KM20L2 colon
- Assay Overview: NCI tumour cell line growth inhibition, 48 h
# TGI per record follows

- Chemical String: "CC1=C/C(=C2/N=C(N(C)C)SS2)C(C)=N1"
  Assay Value: "> 100 µM"
- Chemical String: "COC[C@@H](N=CN1CCc2cc(OC)c(OC)cc2C1)C(C)(C)C"
  Assay Value: "> 100 µM"

Field request: TGI | item: Cc1cc2c(C(C)C)c(O)c(O)c(C=Nc3ccccc3)c2c(O)c1-c1c(C)cc2c(C(C)C)c(O)c(O)c(C=Nc3ccccc3)c2c1O
> 100 µM

---

- Tested on: BT-549 breast
- Assay Overview: NCI tumour cell line growth inhibition, 48 h; in the data active = GI50 below about 0.43 µM; inactive = the rest
Pick one and only one: active, inactive

Solved cases (3 shown):
- Compound: "Cc1cc(S(N)(=O)=O)c(S/C(=N\\Nc2ccc([N+](=O)[O-])cc2)c2ccc3ccccc3c2)cc1Cl"
  Label Value: "inactive"
- Compound: "CC12CCC(O)CC1=CCC1C2CCC2(C)C(c3cccnc3)=CCC12 (stereo not given)"
  Label Value: "inactive"
- Compound: "CCN(CC)CCCNc1[nH]ncc2c(C)c3nc4ccccc4c3cc12"
  Label Value: "inactive"

Record lookup: outcome of this test for O=Nc1c(O)c2ccccc2c2ccccc12 ?
inactive
